- Procedure Summary: small-molecule binders of probe aInhba, primary screen, biochemical, small-molecule microarray, 635/667 nm fluorescence (AID 1148);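 note: score merges 667nm spot fluorescence with signal-to-noise for antibody binding to printed compounds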
- Assay Context: higher = more signal
Readout Label: composite z-score

Compound | Recorded Value
CC1(C)O[C@H]2O[C@H]([C@H](O)CON=C3[C@H]4CCn5c(=O)n(-c6ccccc6)c(=O)n5[C@H]4[C@H](O)[C@@H]4O[C@H]34)[C@H](O)[C@H]2O1 | -0.154
CC(C)CON=C1C[C@@H](O)[C@@H](O)[C@@H]2[C@@H]3C(=O)N(Cc4ccccc4)C(=O)[C@@H]3CC[C@H]12 | -0.212
CO[C@@H]1COC(=O)[C@H](COCc2ccccc2)NC(=O)CC=C[C@@H](C)[C@H](OC)COC(=O)[C@@H](C)NC(=O)CC=C[C@H]1C | -0.179
CCN1C(=O)[C@H]2[C@H]3[C@H](O)[C@H](O)CC(=NOCC[C@@H]4C=C[C@H](OC(C)=O)[C@@H](COC(C)=O)O4)[C@@H]3CC[C@H]2C1=O | -0.109
COc1cccc([C@H]2Oc3ccc(OC)cc3C(=NO[C@@H](C)c3cc(-c4c(C)cc(C)cc4C)no3)[C@@H]2O)c1 | -0.23
COc1ccc(COC(=O)NN=C2C[C@@H](O)[C@@H](O)[C@@H]3[C@@H]4C(=O)N(C(C)(C)C)C(=O)[C@@H]4CC[C@@H]23)cc1 | 0.0086
CON=C[C@@H](OC)[C@H](C)C=CCC(=O)OC | -0.0762
CCOC(=O)NN=C1C[C@@H](O)[C@@H](O)[C@@H]2[C@@H]3C(=O)N(c4ccc(F)cc4F)C(=O)[C@@H]3CC[C@H]12 | -0.0962
C#CCCCON=C1[C@H]2CCn3c(=O)n(Cc4cc5c(cc4Cl)OCO5)c(=O)n3[C@H]2[C@H](O)[C@@H]2O[C@H]12 | -0.0375
O=C1C=C[C@@H](O)[C@@H]2[C@@H]3C(=O)N(C4CCCCC4)C(=O)[C@@H]3CC[C@@H]12 | 0.177
CCOC(=O)[C@H](Cc1ccccc1)NC(=O)CCC1CC(OC(=O)NCc2ccc3c(c2)OCO3)CC2(CCCC(COC(=O)NCCOC)O2)O1 (some centres undefined) | -0.016
COC(=O)[C@H](C)NC(=O)CCC1CC(OC(=O)NCc2cccc3ccccc23)CC2(CCCC(COC(=O)NCCc3ccccc3OC)O2)O1 (some centres undefined) | -0.0361
CCOC(=O)CCN1C(=O)[C@H]2[C@H]3[C@H](O)[C@H](O)CC(=NO[C@@H]4O[C@H](CO)[C@@H](O)[C@H](O)[C@H]4O)[C@@H]3CC[C@H]2C1=O | 0.0173
CN1CCc2nc(-c3ccccc3)c(-c3ccccc3)cc2C1 | -0.176
C[C@@H](c1ccccc1)N1C(=O)[C@H]2[C@H]3[C@H](O)[C@H](O)CC(=NNC(=O)OCc4ccccc4)[C@@H]3CC[C@H]2C1=O | -0.335
CCOC(=O)[C@H](CC(C)C)NC(=O)CCC1CC(OC(=O)NCc2ccc3c(c2)OCO3)CC2(CCCC(COC(=O)NCCOc3ccccc3)O2)O1 (some centres undefined) | -0.0719
CO[C@@H](C(C)C)[C@@H](C)C1OC(=O)CC1O (some centres undefined) | -0.158
O=C1[C@H]2[C@H]3[C@H](O)[C@H](O)CC(=NO[C@@H]4O[C@H](CO)[C@@H](O)[C@H](O)[C@H]4O)[C@@H]3CC[C@H]2C(=O)N1C[C@@H]1CCCO1 | -0.128
C[C@@H]1CC[C@H]2C(=O)OC(CN3C(=O)c4ccccc4C3=O)CN2[C@H]1c1ccc(Br)cc1 (some centres undefined) | -0.045
COC(=O)[C@H](C)NC(=O)CCC1CC(OC(=O)NCc2cccc3ccccc23)CC2(CCCC(COC(=O)NCCC(C)C)O2)O1 (some centres undefined) | -0.0695
C=C(C)C(=O)OC[C@H]1CN2[C@@H](CC[C@@H](C)[C@@H]2c2ccc(Br)cc2)C(=O)O1 | -0.154
CCOC(=O)[C@H](Cc1ccccc1)NC(=O)CCC1CC(OC(=O)NCc2cccc3ccccc23)CC2(CCCC(COC(=O)NCC3CCCCC3)O2)O1 (some centres undefined) | 0.0155
COC(=O)CC=C[C@@H](C)[C@@H](C=NOC(C)CN1CCCc2nc(C)c(C)cc21)NS(=O)(=O)c1ccc(C)cc1 (some centres undefined) | 0.0982
CCN1C(C)=C(C(=O)OC)[C@@H](c2ccccc2)N2C(=O)[C@](O)(C(=O)OC)CC(C(C)=O)=C12 | -0.0986
CC(CCN1CCCc2nc(C)c(C)cc21)=NOC[C@@H](O)COCc1ccco1 | 1.26
COC(=O)[C@H](C)NC(=O)CCC1CC(OC(=O)NCc2cccc3ccccc23)CC2(CCCC(COC(=O)NCCCN3CCCC3=O)O2)O1 (some centres undefined) | -0.152
CCOC(=O)CCN1C(=O)[C@H]2[C@H]3[C@H](O)[C@H](O)CC(=NOCC=C(C)CCC=C(C)C)[C@@H]3CC[C@H]2C1=O | 0.0756
COC(=O)[C@H](C)NC(=O)CCC1CC(OC(=O)NCc2ccc3c(c2)OCO3)CC2(CCCC(COC(=O)NCCCN3CCCC3=O)O2)O1 (some centres undefined) | 0.111
COC(=O)CC=C[C@@H](C)[C@@H](C=NOC[C@@H](C)[C@H](OCc1ccccc1)C(C)C)NS(=O)(=O)c1ccc(C)cc1 | -0.29
